- measuredOn: T1, human CD4 on the surface of SKW3 cells or human PBMCs (human, UniProt P01730 26-458)
- T1 construct: whole, on cells; SKW3 CD4 knockout cells served as the negative cell line; also called hCD4; SKW3 WT
- measurementDescription: FACS binning on SKW3 cells; competitor RPA-T4-PE-Dazzle 594 (its signal read); background 783, max binding 15000
Reported RPA-T4-PE-Dazzle 594 signal values are given for each entry in this list.
Output: the number by itself.

Solved cases (4 shown):
75110_09G15A (antibody, V domains shown, Tested here as non-clonal hybridoma supernatant from AlivaMab Mouse Kappa mice (detected with anti-mouse Fc and anti-human kappa)) VH: EVQLVESGGGLVQPGGSLRLSCAASGFTFSDYWMSWVRQAPGKGLEWVANINQDGSEKYSVDSVKGRFTISRDNAKNSLYLQMNSLRAEDTAIFYCAREGGQWLALDYWGQGTLVTVSS VL: DIQMTQSPSSVSASVGDRVTITCRASQGISSWLAWYQQKPGKAPKLLIYGASSLQSGVPSRFSGSGSGTDFTLTINSLQPEDFTTYYCQQANIFPWTFGQGTKVEIK: 14800
75110_05B13A (antibody, V domains shown, Tested here as non-clonal hybridoma supernatant from AlivaMab Mouse Kappa mice (detected with anti-mouse Fc and anti-human kappa)) VH: QVLLEQWGAGLLKPSETLSLTCAVYGGSFSGYYWTWIRQPPGKGLEWIGEINHRGSTNYNPSLKSRVTISIDTSKNQFSLKVKSVTAADTAMYYCTRPDSNWFDPWGQGTLVTVSS VL: DIQMTQSPSSVSASVGDRVTITCRASQDISNWLAWYQQKPGKAPKLLIFAASSLQSGVPSRFSGSGSGTDFTLTISSLQPEDFATYYCQQANSFPLTFGGGTKVEIK: 20300
75110_03L12A (antibody, V domains shown, Tested here as non-clonal hybridoma supernatant from AlivaMab Mouse Kappa mice (detected with anti-mouse Fc and anti-human kappa)) VH: QVQLQQWGAGLLKPSETLSLTCAVYGGSFSGYYWSWIRQPPGKGLEWIGEINHSGSTNYNPSLKSRVTISVDTSENQFSLTLISVTAADTAVYYCVRLINWFDPWGQGTLVTVSS VL: DIQMTQSPSSVSASVGDRVTITCRASQDISNWLAWYQQKPGKAPKLLIFAASSLQSGVPSRFSGSGSGTDFTLTISSLQPDDFATYYCQQANSFPYTFGQGTNLGIK: 20700
75110_03C01A (antibody, V domains shown, Tested here as non-clonal hybridoma supernatant from AlivaMab Mouse Kappa mice (detected with anti-mouse Fc and anti-human kappa)) VH: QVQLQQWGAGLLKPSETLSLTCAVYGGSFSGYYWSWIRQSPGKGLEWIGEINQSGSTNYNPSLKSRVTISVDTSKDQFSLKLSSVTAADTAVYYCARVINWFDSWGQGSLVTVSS VL: DIQMTQSPSSVSASVGDRVTITCRASQGISSWLAWYQQKPGNAPKLLIYDASSFQSGVPSRFSGSGSGTDFTLTISSLQTEDFATYYCQQANSFPYTFGQGTKLEIK: 19200

Measured RPA-T4-PE-Dazzle 594 signal, 75110_11D03A (antibody, V domains shown, Tested here as non-clonal hybridoma supernatant from AlivaMab Mouse Kappa mice (detected with anti-mouse Fc and anti-human kappa)) VH: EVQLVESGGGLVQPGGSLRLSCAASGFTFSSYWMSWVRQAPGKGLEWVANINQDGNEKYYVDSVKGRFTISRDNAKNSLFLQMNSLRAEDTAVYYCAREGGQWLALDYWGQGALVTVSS VL: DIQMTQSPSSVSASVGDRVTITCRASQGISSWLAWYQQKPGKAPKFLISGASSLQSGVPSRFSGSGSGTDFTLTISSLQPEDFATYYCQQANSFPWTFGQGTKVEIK : 13100
